B1: SERPINB5 (parent)
chain: FPESETKECPFRVNKVCGAACSSK

variants of: B1; test: protein stability index of a GFP-peptide fusion (GPS, HEK-293T) (PSI 1-6); higher = more stable; conditions: c terminus: a fixed tail appended;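 note: lentivirally expressed fusions sorted by FACS into six bins by GFP to DsRed ratio, PSI derived from sequencing read proportions per bin multiplied by bin number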
Lab note: compare protein stability index against 3. Equal or greater, write yes. Smaller, write no.

Field: example entries. Status: answers known.
Mutation Descriptor: C17R
Class Name: no
//
Mutation Descriptor: F1I
Class Name: yes
//
Mutation Descriptor: F1C
Class Name: yes
//
Mutation Descriptor: F1D
Class Name: yes
//
Mutation Descriptor: T6K
Class Name: no

Next, consider the following variant.
INPUT: Tell me whether protein stability index is at least 3 here: S22F
OUTPUT: no
